// provenance: PubChem BioAssay (NCATS)

test: qHTS for differential inhibitors of proliferation of Plasmodium falciparum line HB3 (AID 1886); conditions: Plasmodium falciparum HB3 proliferation inhibition; series mostly up to 28.7 µM;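 further: potency means the concentration at half of the fitted maximal effect; parasites grown with compound for 72 h before SYBR Green readout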
Records with an inconclusive call do not appear. Activity calls are given as the source filed them. The call rests on the fitted dose curve; in most records, active means well fitted curve in the direction sought with a large enough effect; inconclusive means small, poorly fitted or top-dose-only effect, or another doubt; inactive means no such curve, though single readings can be large or run the other way.
Respond with a class label; see active, inactive

Input: How was `CC1=C(/C=C/C(C)=C/C=C/C(C)=C\C(=O)O)C(C)(C)CCC1` classified in this test?
Output: active

====

assay: qHTS for Activators of Parkin Expression: LOPAC Validation Assay (NLuc Reporter) (AID 720572;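 further: 0% = DMSO and 100% = positive control compound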); conditions: Parkin promoter NanoLuc reporter cells, luminescence; series mostly up to 46.1 µM
Results filed as inconclusive are left out. Active and inactive are the calls of the source. Calls follow the shape of the dose curve; as a rule, active = well fitted activation curve with a large enough effect; inconclusive = small, poorly fitted or top-dose-only effect; inactive = flat fitted curve, though single readings scatter.
PARAMETER: outcome

# annotated cases, reported outcome shown
{"COMPOUND": "CCCCCCC/C=C\\CCCCCCCCC(=O)O", "outcome": "inactive"}
{"COMPOUND": "CC(C)NC[C@H](O)COc1cccc2ccccc12", "outcome": "inactive"}
{"COMPOUND": "CNCCNS(=O)(=O)c1cccc2cnccc12", "outcome": "inactive"}
{"COMPOUND": "C=CC[C@H](N)C(=O)O", "outcome": "inactive"}
{"COMPOUND": "CN(C)S(=O)(=O)c1ccc2c(c1)/C(=C/c1cc3c([nH]1)CCCC3)C(=O)N2", "outcome": "inactive"}

Input: Fill blank: measured outcome of the compound `Nc1ccc(-c2ccc3ccccc3n2)cc1` is ____.
Output: inactive

Input: Consider the compound shown here: `C=CCn1c(=O)c2c(nc(-c3ccc(S(=O)(=O)O)cc3)n2C)n(C)c1=O` What is its recorded outcome?
Output: inactive

Input: What value of measured outcome is listed for `CNCCc1cnc(CCC(c2ccccc2)c2ccccc2)[nH]1` ?
Output: inactive

Input: Would you mind telling me what outcome value was observed for `O=C(O)C1=CC(=C(c2ccc(O)c(C(=O)O)c2)c2ccc(O)c(C(=O)O)c2)C=CC1=O` ?
Output: inactive

Input: Could you share which outcome value was measured for Nc1ncnc2c1nc(Sc1ccc(Cl)cc1)n2[C@H]1OC2COP(=O)(O)O[C@@H]2C1O (some centres not stated) ?
Output: inactive

Input: // query outcome value for entry `O=[N+]([O-])c1cccc2c(Br)[nH]nc12`
Output: inactive

Input: Value lookup for outcome; key = `Cn1c(=O)c2[nH]c(C3CCCC3)nc2n(C)c1=O`
Output: inactive

====

target: Rap guanine nucleotide exchange factor 3 (Homo sapiens); assay: Confirmatory qHTS for antagonist of cAMP-regulated guanine nucleotide exchange factor 3 (EPAC1) (AID 1645880); conditions: EPAC1 Rap1B-BODIPY-GDP exchange, fluorescence; series mostly up to 115 µM; further: nearly all actives have a fitted effect of over 55% in size; further: potency means the concentration at half of the fitted maximal effect
Results filed as inconclusive are left out. Active and inactive are the calls of the source. Calls follow the shape of the dose curve; as a rule, active = well fitted inhibition curve with a large enough effect; inconclusive = small, poorly fitted or top-dose-only effect; inactive = no such curve, though single readings can be large or run the other way.
PARAMETER: Potency

Use these answered entries as a reference point.
{"COMPOUND": "Nc1ncnc2c1nc(Br)n2C1OC2COP(=O)(O)O[C@@H]2C1O (stereo partly specified)", "SYSTEM_NAME": "Rap guanine nucleotide exchange factor 3 (Homo sapiens)", "Potency": "3.14 µM (active)"}
{"COMPOUND": "COc1ccc(CCn2nnnc2C2(c3ccc(C)cc3)CC2)cc1", "SYSTEM_NAME": "Rap guanine nucleotide exchange factor 3 (Homo sapiens)", "Potency": "inactive"}
{"COMPOUND": "CC(/C=C/c1cccc(Oc2ccc(F)cc2)c1)N(O)C(N)=O (stereo unspecified)", "SYSTEM_NAME": "Rap guanine nucleotide exchange factor 3 (Homo sapiens)", "Potency": "inactive"}
{"COMPOUND": "C[C@@]1(C2CCCC2)Cc2cc(OCC(=O)O)c(Cl)c(Cl)c2C1=O", "SYSTEM_NAME": "Rap guanine nucleotide exchange factor 3 (Homo sapiens)", "Potency": "inactive"}
{"COMPOUND": "O=C1Nc2ccc(I)cc2/C1=C/c1cc(Br)c(O)c(Br)c1", "SYSTEM_NAME": "Rap guanine nucleotide exchange factor 3 (Homo sapiens)", "Potency": "19.8 µM (active)"}

Continue with the next compound.
Input: Param item = `c1ccc(C(NCc2cccnc2)(c2ccccc2)c2ccccc2)cc1` ; retrieve measured Potency.
Output: inactive

====

assay: Validation screen for small molecules that induce DNA re-replication in SW480 colon adenocarcinoma cells (AID 504364); conditions: DNA re-replication phenotype (high-content imaging); series mostly up to 46.1 µM; further: 0% is about no effect
Records with an inconclusive call do not appear. Activity calls are given as the source filed them. Calls follow the shape of the dose curve; as a rule, active = well fitted activation curve with a large enough effect; inconclusive = small, poorly fitted or top-dose-only effect; inactive = flat fitted curve, though single readings scatter.
PARAMETER: outcome

Solved entries (count: 5):
{"MOLECULE": "CCCCCCCCCCC/C=C\\C(C)(C)/C=C\\CCCC(=O)O", "outcome": "inactive"}
{"MOLECULE": "NCCS(=O)O", "outcome": "inactive"}
{"MOLECULE": "COc1ccc2c(c1)c(CC(=O)O)c(C)n2C(=O)c1ccccc1", "outcome": "inactive"}
{"MOLECULE": "N[C@@H](Cc1ccc(O)c(I)c1)C(=O)O", "outcome": "inactive"}
{"MOLECULE": "CC(C)(C)NCC(O)COc1cccc2[nH]c(=O)[nH]c12 (stereo not drawn)", "outcome": "inactive"}

Input: Param item = `Nc1nc2ccc(Cl)cc2c2nc(-c3ccco3)nn12` ; retrieve measured outcome.
Output: inactive

Input: So what's the measured outcome for this one? `CCN1C(=O)C=CC1=O`
Output: inactive

Input: Fill blank: measured outcome of the molecule C=CCN1CCc2cc(O)c(O)cc2C(c2ccccc2)C1 (stereo not drawn) is ____.
Output: inactive

Input: Fill in the blank: the reported outcome of `N[C@@H](Cc1ccc(F)cc1)C(=O)O` is ____.
Output: inactive

====

Experiment: Natriuretic polypeptide receptor (hNpr1) antagonism - Pilot counterscreen GloSensor control cell line (AID 1347045); further: on the % scale 0 is the no-effect control and ±100 the full control effect
Settings: HEK293 cGMP GloSensor cells, SNP-stimulated luminescence, 20 min; series mostly up to 38.3 µM
Text: F. Fan, B. F. Binkowski, B. L. Butler, P. F. Stecha, M. K. Lewis, K. V. Wood, Novel genetically encoded biosensors using firefly luciferase. ACS Chem Biol 3, 346-351 (2008). PROTOCOL TABLE (as described by Inglese J, Shamu CE and Guy RK. 2007) […] 7. […] GloSensor baseline pre-read luminescence measured using CCD-based camera (Viewlux). […] 10. […] GloSensor post-SNP luminescence measured using CCD-based camera (Viewlux). […] 1. […] Cells counted with Invitrogen Countess (30,000,000 - 50,000,000 cells/flask). […]
Records with an inconclusive call do not appear. Active and inactive are the calls of the source. Calls follow the shape of the full dose curve.
Mark one answer only. Choices: label 1 (active), label 0 (inactive)

{"MOLECULE": "CN(C)C(=O)/N=N/C(=O)N(C)C", "ASSIGNED_CATEGORY": "label 0"}

Input: Answer briefly: the call reported for `N[C@H]1CONC1=O` in this assay.
Output: label 0

Input: I would be grateful if you could indicate the recorded call for CCCCCC(O)CCCC(=O)O (stereo unspecified) .
Output: label 0

Input: // param item: `O=c1[nH]c(=S)[nH]c(-c2ccccc2)c1Cc1c(O)ccc2ccccc12` ; yields the recorded call
Output: label 0

Input: Each molecule tested received a call. Report the one for `CC1=C(/C=C/C(C)=C/C=C/C(C)=C\C(=O)O)C(C)(C)CCC1` .
Output: label 0

Input: Given `COc1cc(CC(=O)O)ccc1O` , state the outcome it received in this test.
Output: label 0

====

assay: NFAT Signaling Pathway (AID 444); conditions: Jurkat NFAT-bla M1, carbachol, beta-lactamase ratio, 5 h; at 38 µM (top of the series) unless noted;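 further: carbachol stimulus at about its EC50 of 1 µM final; on the % scale 0 is the no-effect control and ±100 the full control effect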
Results filed as inconclusive are left out. Active and inactive are the calls of the source. Calls follow the shape of the dose curve; as a rule, active = well fitted curve in either direction with a large enough effect (not every such curve was filed as active); inconclusive = small, poorly fitted or top-dose-only effect, or another doubt; inactive = flat fitted curve, though single readings scatter.
PARAMETER: activity change, negative = inhibition

Input: Any idea what its activity change, negative = inhibition is? The compound is `COc1cc(CNC(=O)CCCCCCC(C)C)ccc1O`
Output: 7.5% (inactive)

====

Target: Muscarinic acetylcholine receptor M1 (Rattus norvegicus)
Experiment: qHTS Assay for Antagonists of Acetylcholine Muscarinic M1 Receptor: Kinetic Measurement of Intracellular Calcium Response (AID 943); further: nearly all actives have a fitted effect of over 75% in size
Settings: M1-expressing cells, kinetic intracellular calcium fluorescence; series mostly up to 35.3 µM
Protocol: NIH Molecular Libraries Screening Centers Network [MLSCN] NIH Chemical Genomics Center [NCGC] Acetylcholine muscarinic M1 receptor is a G-protein coupled receptor (GPCR) coupling to the Gq G protein. […] The increase of intracellular calcium can be measured by the fluorescent calcium dyes, Fluo-3 and Fluo-4, using a fluorescence kinetic plate reader. […] #- read the assay plate 6 times at 1 Hz for basal signal […] #- continuously read the assay plate for 4 min at 1 Hz […]
Results filed as inconclusive are left out. Activity calls are given as the source filed them. Calls come from the whole dose curve; as a rule, active = well fitted inhibition curve with a large enough effect; inconclusive = small, poorly fitted or top-dose-only effect; inactive = no such curve, though single readings can be large or run the other way.
A correct response names exactly one class from yes (1) (active), no (0) (inactive)

Past entries and their recorded results:
{"COMPOUND": "C=CCn1c(=O)c2c(nc(-c3ccc(S(=O)(=O)O)cc3)n2C)n(C)c1=O", "SYSTEM_NAME": "Muscarinic acetylcholine receptor M1 (Rattus norvegicus)", "ASSIGNED_CATEGORY": "no (0)"}
{"COMPOUND": "Cc1nc(N=Nc2ccc(C(=O)O)cc2)c(COP(=O)(O)O)c(C=O)c1O", "SYSTEM_NAME": "Muscarinic acetylcholine receptor M1 (Rattus norvegicus)", "ASSIGNED_CATEGORY": "no (0)"}
{"COMPOUND": "NCCNS(=O)(=O)c1cccc2c(Cl)cccc12", "SYSTEM_NAME": "Muscarinic acetylcholine receptor M1 (Rattus norvegicus)", "ASSIGNED_CATEGORY": "no (0)"}
{"COMPOUND": "Cn1c(=O)c2[nH]c(-c3ccc(S(=O)(=O)O)cc3)nc2n(C)c1=O", "SYSTEM_NAME": "Muscarinic acetylcholine receptor M1 (Rattus norvegicus)", "ASSIGNED_CATEGORY": "no (0)"}
{"COMPOUND": "N=C(N)c1ccccc1", "SYSTEM_NAME": "Muscarinic acetylcholine receptor M1 (Rattus norvegicus)", "ASSIGNED_CATEGORY": "no (0)"}
{"COMPOUND": "N[C@H](C(=O)O)c1cc(O)cc(O)c1", "SYSTEM_NAME": "Muscarinic acetylcholine receptor M1 (Rattus norvegicus)", "ASSIGNED_CATEGORY": "no (0)"}
{"COMPOUND": "CCCCCCCCCCC/C=C\\C(C)(C)/C=C\\CCCC(=O)O", "SYSTEM_NAME": "Muscarinic acetylcholine receptor M1 (Rattus norvegicus)", "ASSIGNED_CATEGORY": "no (0)"}
{"COMPOUND": "CC(N)=O", "SYSTEM_NAME": "Muscarinic acetylcholine receptor M1 (Rattus norvegicus)", "ASSIGNED_CATEGORY": "no (0)"}
{"COMPOUND": "O=C(N[C@@H](Cc1ccccc1)C(=O)CCl)OCc1ccccc1", "SYSTEM_NAME": "Muscarinic acetylcholine receptor M1 (Rattus norvegicus)", "ASSIGNED_CATEGORY": "no (0)"}
{"COMPOUND": "N#Cc1cc2nc(O)c(O)nc2cc1[N+](=O)[O-]", "SYSTEM_NAME": "Muscarinic acetylcholine receptor M1 (Rattus norvegicus)", "ASSIGNED_CATEGORY": "no (0)"}

Input: Per the assay record, what outcome was assigned to `C[C@H](NC(=O)/C(C#N)=C/c1ccc(O)c(O)c1)c1ccccc1` ?
Output: no (0)

Input: Call for entry `CNCCNS(=O)(=O)c1cccc2cnccc12` :
Output: no (0)

Input: Can you look up the reported call for `O=C(O)C1=CCNCC1` for me?
Output: no (0)

Input: Test call for this molecule, please: `N[C@@H](CS(=O)O)C(=O)O`
Output: no (0)

Input: For this molecule, state the assay outcome: `O=C(O)c1ccccc1Nc1cccc(OCc2ccc3ccccc3n2)c1`
Output: no (0)

Input: Tell me the recorded outcome of this test for `O=C(OCCN1CCOCC1)C1(c2ccccc2)CCCCC1` .
Output: yes (1)

Input: Call for entry `COc1cc2c(CCNC(C)=O)c[nH]c2cc1O` :
Output: no (0)

Input: Test call for this molecule, please: `CN(C)S(=O)(=O)c1ccc2c(c1)/C(=C/c1cc3c([nH]1)CCCC3)C(=O)N2`
Output: no (0)

Input: Identify the outcome logged in this assay for the molecule shown: `NCCCCN`
Output: no (0)

Input: Check the results log: what was the call for `CCCn1c(=O)c2c(ncn2C)n(CCC)c1=O` ?
Output: no (0)

Input: Which outcome did this test record for the molecule `O=C(O)c1ccccc1Nc1ccccc1` ?
Output: no (0)

Input: Tell me the recorded outcome of this test for `NOCC(=O)O` .
Output: no (0)
